Assay: Single-dose pharmacokinetics of T+Ai pellet implant (80 mg testosterone + 4 mg anastrozole, subcutaneous)
Conditions: human, in vivo, sc, 4 mg, Measured serum anastrozole, mean, 168 h post-dose
Assay Readout: concentration at 168 h

{"Smiles Repr": "CC(C)(C#N)c1cc(Cn2cncn2)cc(C(C)(C)C#N)c1", "Reading": "3.57 ng/mL"}

----------
Test: Single-dose pharmacokinetics of T+Ai pellet implant (80 mg testosterone + 4 mg anastrozole, subcutaneous)
Conditions: human, in vivo, sc, 80 mg, Measured serum testosterone, GeoMean, geometric mean, 2 h post-dose
Assay Readout: concentration at 2 h

{"Smiles Repr": "C[C@]12CC[C@H]3[C@@H](CCC4=CC(=O)CC[C@@]43C)[C@@H]1CC[C@@H]2O", "Reading": "0.6 ng/mL"}

----------
Assay: Single-dose pharmacokinetics of T+Ai pellet implant (80 mg testosterone + 4 mg anastrozole, subcutaneous)
Conditions: human, in vivo, sc, 80 mg, Measured serum testosterone, mean, 2016 h post-dose
Assay Readout: concentration at 2016 h (ng/mL)

{"Compound": "C[C@]12CC[C@H]3[C@@H](CCC4=CC(=O)CC[C@@]43C)[C@@H]1CC[C@@H]2O [Testosterone, testosterone]", "Assay Readout": "concentration at 2016 h", "Reading": 0.83}

----------
Experiment: Single-dose pharmacokinetics of T+Ai pellet implant (80 mg testosterone + 4 mg anastrozole, subcutaneous)
Conditions: human, in vivo, sc, 80 mg, Measured serum testosterone, median, 2016 h post-dose
Description: The premenopausal women were aged between 35 and 55 years of age with a BMI range of 20-30 kg/m^2. […] The implant was intended to be left in situ and was expected to be almost completely absorbed within three months following insertion. […] (NB: the sample collection time point at 6 hours post-dose was added for the third and subsequent subject and so serum measurements were not determined for the first two subjects as noted below). […]

{"Compound": "C[C@]12CC[C@H]3[C@@H](CCC4=CC(=O)CC[C@@]43C)[C@@H]1CC[C@@H]2O [Testosterone, testosterone]", "Measure Unit": "ng/mL", "concentration at 2016 h": 0.85}

----------
Assay: Single-dose pharmacokinetics of T+Ai pellet implant (80 mg testosterone + 4 mg anastrozole, subcutaneous)
Conditions: human, in vivo, sc, 4 mg, Measured serum anastrozole, GeoMean, geometric mean, 72 h post-dose
Method: The premenopausal women were aged between 35 and 55 years of age with a BMI range of 20-30 kg/m^2. […] The implant was intended to be left in situ and was expected to be almost completely absorbed within three months following insertion. […] (NB: the sample collection time point at 6 hours post-dose was added for the third and subsequent subject and so serum measurements were not determined for the first two subjects as noted below). […]

{"Molecule": "CC(C)(C#N)c1cc(Cn2cncn2)cc(C(C)(C)C#N)c1 [Anastrozole]", "concentration at 72 h": "4.92 ng/mL"}

----------
Assay: Single-dose pharmacokinetics of T+Ai pellet implant (80 mg testosterone + 4 mg anastrozole, subcutaneous)
Conditions: human, in vivo, sc, 4 mg, Measured serum anastrozole, mean, 2016 h post-dose

{"Smiles Repr": "CC(C)(C#N)c1cc(Cn2cncn2)cc(C(C)(C)C#N)c1", "concentration at 2016 h, ng/mL": 0.04}
